# System tested: Cytochrome P450 11B2, mitochondrial (Homo sapiens)
# Sequence (P19099 whole entry): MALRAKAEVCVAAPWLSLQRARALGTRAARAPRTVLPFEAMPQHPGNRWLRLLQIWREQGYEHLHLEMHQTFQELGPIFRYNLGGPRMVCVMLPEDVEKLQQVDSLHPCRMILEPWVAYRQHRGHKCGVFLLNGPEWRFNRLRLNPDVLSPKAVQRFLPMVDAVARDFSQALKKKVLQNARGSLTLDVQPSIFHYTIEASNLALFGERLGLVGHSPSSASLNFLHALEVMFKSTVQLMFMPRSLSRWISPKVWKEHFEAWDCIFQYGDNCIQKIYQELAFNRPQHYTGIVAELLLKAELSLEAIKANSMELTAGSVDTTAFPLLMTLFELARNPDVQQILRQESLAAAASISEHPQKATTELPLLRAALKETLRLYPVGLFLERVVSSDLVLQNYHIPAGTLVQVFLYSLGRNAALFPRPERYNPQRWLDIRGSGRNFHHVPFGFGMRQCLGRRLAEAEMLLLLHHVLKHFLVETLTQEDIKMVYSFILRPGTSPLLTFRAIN
# Assay comment: Inhibition of human aldosterone synthase expressed in chinese hamster V79 cells at 500 nM using 11-deoxycorticosterone as substrate
# Condition description: read-out: INH
Readout kind: inhibition at 0.5 µM (%)

(A) O=C(Nc1cccnc1)c1cncc(Br)c1
(B) N#Cc1ccc(C(=O)Nc2cccnc2)cc1
(C) COc1ccc(C(=O)Nc2cccnc2)cc1OC
(D) O=C(Nc1cccnc1)c1cccnc1
(E) O=C(Nc1cccnc1)c1ccc(OC(F)(F)F)cc1
Problem: Sort entries by inhibition at 0.5 µM from minimum to maximum value. # answer = labels listed in requested order
Solution: C, E, D, A, B

(P) O=C(Nc1cccnc1)c1ccncc1
(Q) O=C(Nc1cccnc1)c1cccc(Cl)c1
Problem: Lowest inhibition at 0.5 µM? choose P or Q Please identify the chosen entry by its label.
Solution: Q
(Q: 26%, P: 39%)

---

# System tested: CYP11B1 (steroid-11beta-hydroxylase) (Homo sapiens, UniProt P15538)
# Sequence (P15538 whole entry): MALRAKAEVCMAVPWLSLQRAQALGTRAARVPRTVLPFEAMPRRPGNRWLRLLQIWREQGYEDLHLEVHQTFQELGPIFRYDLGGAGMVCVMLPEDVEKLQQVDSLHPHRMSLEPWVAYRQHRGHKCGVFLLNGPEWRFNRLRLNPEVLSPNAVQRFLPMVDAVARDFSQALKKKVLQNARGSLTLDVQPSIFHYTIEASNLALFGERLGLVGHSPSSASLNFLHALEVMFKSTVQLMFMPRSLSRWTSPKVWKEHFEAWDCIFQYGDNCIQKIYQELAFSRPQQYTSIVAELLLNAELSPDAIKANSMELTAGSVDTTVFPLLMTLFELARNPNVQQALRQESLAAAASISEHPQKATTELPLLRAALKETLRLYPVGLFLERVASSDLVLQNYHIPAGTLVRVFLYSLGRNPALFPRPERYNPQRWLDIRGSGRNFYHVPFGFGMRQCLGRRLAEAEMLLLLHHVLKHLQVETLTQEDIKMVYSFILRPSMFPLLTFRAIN
# Assay comment: Inhibition of human steroid-11beta-hydroxylase expressed in chinese hamster V79 cells at 500 nM using 11-deoxycorticosterone as substrate
# Condition description: probe 11-deoxycorticosterone
Readout kind: inhibition at 0.5 µM (%)

These solved cases illustrate the format of a correct answer.
{"Entry smiles": "O=C(Nc1cccnc1)c1ccc([N+](=O)[O-])cc1", "inhibition at 0.5 µM (%)": 0}
{"Entry smiles": "Cc1ccc(C(=O)Nc2cccnc2)cc1", "inhibition at 0.5 µM (%)": 0}
{"Entry smiles": "O=C(Nc1cccnc1)c1cccc(Cl)c1Cl", "inhibition at 0.5 µM (%)": 4}

(1) O=C(Nc1cccnc1)c1cncc(Br)c1
(2) CC(C)(C(=O)c1cccnc1)c1cccnc1
(3) O=C(Nc1cccnc1)c1ccc(F)cc1
(4) O=C(Nc1cccnc1)c1cc(F)c(F)cc1F
Problem: Sort (4 molecules) by inhibition at 0.5 µM: min first. // list labels; follow requested order
Solution: 1, 4, 3, 2
(1: 0.4%, 4: 2%, 3: 7%, 2: 94%)

---

# System tested: CYP17 (steroid 17-alpha-hydroxylase/17,20 lyase) (Homo sapiens)
# Sequence (P05093 whole entry): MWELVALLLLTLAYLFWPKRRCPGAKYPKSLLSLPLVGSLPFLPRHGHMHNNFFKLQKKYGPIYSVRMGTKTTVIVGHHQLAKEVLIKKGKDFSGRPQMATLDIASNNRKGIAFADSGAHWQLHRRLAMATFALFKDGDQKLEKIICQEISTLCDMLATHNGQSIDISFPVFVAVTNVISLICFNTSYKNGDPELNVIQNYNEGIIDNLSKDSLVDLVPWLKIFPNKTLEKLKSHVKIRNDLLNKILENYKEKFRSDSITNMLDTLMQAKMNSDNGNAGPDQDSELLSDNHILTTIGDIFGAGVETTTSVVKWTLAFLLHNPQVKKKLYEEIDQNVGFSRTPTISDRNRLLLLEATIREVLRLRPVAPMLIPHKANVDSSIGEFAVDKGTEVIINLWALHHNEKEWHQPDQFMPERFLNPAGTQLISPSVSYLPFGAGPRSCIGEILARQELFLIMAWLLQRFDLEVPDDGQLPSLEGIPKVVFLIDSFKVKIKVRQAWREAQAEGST
# Assay comment: Inhibition of human CYP17 expressed in Escherichia coli at 2000 nM using progesterone as substrate
# Condition description: probe progesterone
Readout kind: inhibition at 2 µM (%)

Here are 4 compounds together with their reported answers.
{"Entry smiles": "O=C(Nc1cccnc1)c1cc(F)c(F)cc1F", "Readout kind": "inhibition at 2 µM", "Measured value": 0.6}
{"Entry smiles": "O=C(Nc1cccnc1)c1ccc(Br)cc1", "Readout kind": "inhibition at 2 µM", "Measured value": 4.3}
{"Entry smiles": "O=C(Nc1cccnc1)c1ccc(Cl)cc1", "Readout kind": "inhibition at 2 µM", "Measured value": 1.3}
{"Entry smiles": "O=C(Nc1cccnc1)c1ccc([N+](=O)[O-])cc1", "Readout kind": "inhibition at 2 µM", "Measured value": 1}

(a) O=C(Nc1cccnc1)c1ccc(F)cc1
(b) O=C(Nc1cccnc1)c1ccc(F)c(F)c1
(c) CC(C)(C(=O)c1cccnc1)c1cccnc1
(d) N#Cc1ccc(C(=O)Nc2cccnc2)cc1
Problem: Task for the reader: rank each entry by its inhibition at 2 µM, from the minimum upward. Please list the labels according to the requested order.
Solution: c, d, a, b
(c: 0%, d: 0.2%, a: 0.3%, b: 1%)
